variants and their reported protein stability index
B1: ZBED2 (parent)
chain: RAGHHPNQYATCRLCGRQVSRGPG

Variants of: B1
Assay: protein stability index of a GFP-peptide fusion (GPS, HEK-293T) (PSI 1-6); higher = more stable;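 note: lentivirally expressed fusions sorted by FACS into six bins by GFP to DsRed ratio, PSI derived from sequencing read proportions per bin multiplied by bin number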
Conditions: c terminus: a fixed tail appended
Give a plain numeric answer without units written out.

The following variants have reported results that may help.
# input Given "C12R" , state its recorded protein stability index.
# output 3.2

# input Another variant to look at: "G22K"
# output 2.68

# input Then what about the variant "R13F" ?
# output 1.36

# input Entry to check: "G16T"
# output 1.41

# input Another variant to check: "C15F"
# output 1.7

---
# input Reported protein stability index, variant "C15L" : ____
# output 1.85

# input Lookup "C15S"
# output 2.34

# input Entry to check: "C15A"
# output 1.4

# input Another: "R13D"
# output 1.96

# input And then "V19G" , what is it?
# output 2.53

# input Input "S20E"
# output 2.88

Source of measurements: the supplement of paper PMC10567573
